- Protocol Summary: Rat IV/PO pharmacokinetic study (prodrug to parent conversion)
- Format: in vivo, Han Wistar rats
- Condition Info: male, Han Wistar, whole blood, prodrug in blood, Example 3 1 mg/kg 60 minute intravenous infusion, mean±SD (N=3)
Endpoint Label: Cmax (ng/mL)

INSERT INTO assay_data (sample_smiles, reading) VALUES
  ('Cc1cc(F)ccc1N1CN(c2ccc(=O)n(COP(=O)(O)O)c2C)C(=O)c2cc(Cl)ccc21', 260);

----------
- Protocol Summary: Rat IV/PO pharmacokinetic study (prodrug to parent conversion)
- Assay type: in vivo, Han Wistar rats
- Condition Info: male, Han Wistar, whole blood, prodrug, systemic blood clearance, Example 3 1 mg/kg 60 minute intravenous infusion, mean±SD (N=3)
Endpoint Label: clearance (mL/min/kg)

INSERT INTO results (sample_smiles, endpoint_label, reading) VALUES
  ('Cc1cc(F)ccc1N1CN(c2ccc(=O)n(COP(=O)(O)O)c2C)C(=O)c2cc(Cl)ccc21', 'clearance', 58);

----------
- Protocol Summary: Rat IV/PO pharmacokinetic study (prodrug to parent conversion)
- Type: in vivo, Han Wistar rats
- Condition Info: male, Han Wistar, whole blood, prodrug in blood, Example 3 1 mg/kg 60 minute intravenous infusion, mean±SD (N=3)
Endpoint Label: AUC(0-t)

INSERT INTO assay_data (sample_smiles, endpoint_label, reading) VALUES
  ('Cc1cc(F)ccc1N1CN(c2ccc(=O)n(COP(=O)(O)O)c2C)C(=O)c2cc(Cl)ccc21', 'AUC(0-t)', '240 ng·h/mL');

----------
- Test Target: human Nav1.8 (Homo sapiens (Human))
- Sequence (Q9Y5Y9 whole entry): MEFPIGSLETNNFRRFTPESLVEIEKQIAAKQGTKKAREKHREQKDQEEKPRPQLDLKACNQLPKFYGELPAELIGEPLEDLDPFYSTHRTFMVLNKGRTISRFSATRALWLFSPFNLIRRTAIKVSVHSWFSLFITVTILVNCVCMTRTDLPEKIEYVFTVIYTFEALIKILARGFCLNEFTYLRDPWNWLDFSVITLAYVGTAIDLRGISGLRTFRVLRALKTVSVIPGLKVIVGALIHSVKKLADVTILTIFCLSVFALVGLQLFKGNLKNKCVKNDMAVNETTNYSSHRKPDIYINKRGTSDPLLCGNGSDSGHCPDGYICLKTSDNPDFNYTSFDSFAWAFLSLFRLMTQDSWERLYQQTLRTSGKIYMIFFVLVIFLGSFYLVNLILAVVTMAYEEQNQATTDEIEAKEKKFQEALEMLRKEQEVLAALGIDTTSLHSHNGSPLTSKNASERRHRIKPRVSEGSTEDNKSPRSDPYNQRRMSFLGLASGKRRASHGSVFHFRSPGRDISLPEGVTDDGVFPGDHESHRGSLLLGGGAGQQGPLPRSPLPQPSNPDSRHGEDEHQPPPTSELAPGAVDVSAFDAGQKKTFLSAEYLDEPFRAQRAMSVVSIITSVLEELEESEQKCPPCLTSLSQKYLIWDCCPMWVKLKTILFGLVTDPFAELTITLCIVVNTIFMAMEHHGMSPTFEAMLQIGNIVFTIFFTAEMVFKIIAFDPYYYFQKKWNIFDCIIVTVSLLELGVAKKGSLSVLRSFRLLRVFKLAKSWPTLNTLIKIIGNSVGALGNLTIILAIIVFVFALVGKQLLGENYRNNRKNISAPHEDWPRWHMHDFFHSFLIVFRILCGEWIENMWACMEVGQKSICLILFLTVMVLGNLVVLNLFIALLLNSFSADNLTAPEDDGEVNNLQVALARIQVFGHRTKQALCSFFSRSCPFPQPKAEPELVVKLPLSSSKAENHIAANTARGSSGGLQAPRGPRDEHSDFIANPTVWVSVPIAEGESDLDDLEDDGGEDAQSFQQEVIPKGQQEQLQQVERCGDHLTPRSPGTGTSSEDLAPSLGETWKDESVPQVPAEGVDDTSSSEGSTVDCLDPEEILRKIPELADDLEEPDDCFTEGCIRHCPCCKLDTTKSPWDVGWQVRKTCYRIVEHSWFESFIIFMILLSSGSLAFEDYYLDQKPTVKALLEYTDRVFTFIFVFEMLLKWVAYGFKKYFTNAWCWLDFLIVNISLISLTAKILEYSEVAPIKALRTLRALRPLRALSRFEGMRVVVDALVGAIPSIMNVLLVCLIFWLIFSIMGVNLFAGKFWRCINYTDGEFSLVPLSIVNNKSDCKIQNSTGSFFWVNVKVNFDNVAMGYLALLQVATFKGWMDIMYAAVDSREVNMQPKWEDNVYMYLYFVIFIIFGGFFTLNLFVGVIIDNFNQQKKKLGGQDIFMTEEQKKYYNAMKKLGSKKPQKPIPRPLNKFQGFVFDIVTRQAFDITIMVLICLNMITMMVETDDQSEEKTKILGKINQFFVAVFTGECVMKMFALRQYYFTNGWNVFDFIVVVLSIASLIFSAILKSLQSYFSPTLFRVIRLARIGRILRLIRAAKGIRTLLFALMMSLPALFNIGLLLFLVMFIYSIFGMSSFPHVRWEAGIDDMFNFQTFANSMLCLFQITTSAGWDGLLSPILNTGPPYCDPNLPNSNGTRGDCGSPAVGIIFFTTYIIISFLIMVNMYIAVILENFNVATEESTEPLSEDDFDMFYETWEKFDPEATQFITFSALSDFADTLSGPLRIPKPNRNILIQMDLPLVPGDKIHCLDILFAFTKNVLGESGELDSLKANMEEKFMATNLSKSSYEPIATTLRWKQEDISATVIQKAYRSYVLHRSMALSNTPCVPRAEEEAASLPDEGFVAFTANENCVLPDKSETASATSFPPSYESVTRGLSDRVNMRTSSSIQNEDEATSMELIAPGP
- Protocol Summary: QPatch 48 HTX electrophysiology, half inactivation state (V1/2) voltage protocol in HEK293-Nav1.8
- Type: cell-based
- Condition Info: HEK293-Nav1.8, QPatch V1/2 protocol, P2 current; average if more than one run
Endpoint Label: [Nav1.8] pIC50 (Compounds of the Invention)

INSERT INTO assay_data (sample_smiles, reading) VALUES
  ('Cc1cc(F)ccc1N1CN(c2ccc(=O)n(COP(=O)(O)O)c2C)C(=O)c2ccc(C(F)(F)F)cc21', 6.6),
  ('Cc1cc(F)ccc1N1CN(c2ccc(=O)n(COP(=O)(O)O)c2C)C(=O)c2cc(Cl)ccc21', 6.9),
  ('Cc1cc(OC(F)(F)F)ccc1N1CN(c2ccc(=O)n(COP(=O)(O)O)c2C)C(=O)c2cc(C(F)(F)F)cnc21', 6.1),
  ('Cc1cc(F)ccc1N1CN(c2ccc(=O)n(COP(=O)(O)O)c2C)C(=O)c2cc(C(F)(F)F)ccc21', 6.8);

----------
- Protocol Summary: Kinetic solubility measurement using Charged Aerosol Detector (CAD)
- Type: physicochemical
- Condition Info: phosphate buffered saline (PBS) pH 7.4, aqueous buffer, PBS pH 7.4, 1 hour at room temperature, from DMSO stock, average for Examples 1 and 3, one run for 2 and 4, read-out: CAD solubility (Prodrug Compounds of the Invention)
Property: solubility at 1 h; scope: individual molecules
Endpoint Label: solubility at 1 h (µg/mL)

INSERT INTO measurements (sample_smiles, unit, comparison_sign, reading) VALUES
  ('Cc1cc(OC(F)(F)F)ccc1N1CN(c2ccc(=O)n(COP(=O)(O)O)c2C)C(=O)c2cc(C(F)(F)F)cnc21', 'µg/mL', '=', 181),
  ('Cc1cc(F)ccc1N1CN(c2ccc(=O)n(COP(=O)(O)O)c2C)C(=O)c2cc(Cl)ccc21', 'µg/mL', '=', 102),
  ('Cc1cc(F)ccc1N1CN(c2ccc(=O)n(COP(=O)(O)O)c2C)C(=O)c2cc(C(F)(F)F)ccc21', 'µg/mL', '>', 260),
  ('Cc1cc(F)ccc1N1CN(c2ccc(=O)n(COP(=O)(O)O)c2C)C(=O)c2ccc(C(F)(F)F)cc21', 'µg/mL', '>', 193);

----------
Here, each record is paired with measured solubility at 1 h data.
- Protocol Summary: Kinetic solubility measurement using Charged Aerosol Detector (CAD)
- Type: physicochemical
- Condition Info: phosphate buffered saline (PBS) pH 7.4, aqueous buffer, PBS pH 7.4, 1 hour at room temperature, from DMSO stock, average of multiple runs, read-out: CAD solubility (Parent Compounds)
Endpoint Label: solubility at 1 h (µg/mL)

INSERT INTO assay_data (molecule, endpoint_label, reading) VALUES
  ('Cc1cc(F)ccc1N1CN(c2ccc(=O)[nH]c2C)C(=O)c2cc(C(F)(F)F)ccc21 [Parent Compound 1A]', 'solubility at 1 h', 48),
  ('Cc1cc(F)ccc1N1CN(c2ccc(=O)[nH]c2C)C(=O)c2cc(Cl)ccc21 [Parent Compound 3A]', 'solubility at 1 h', 54),
  ('Cc1cc(F)ccc1N1CN(c2ccc(=O)[nH]c2C)C(=O)c2ccc(C(F)(F)F)cc21 [Parent Compound 2A]', 'solubility at 1 h', 51),
  ('Cc1cc(OC(F)(F)F)ccc1N1CN(c2ccc(=O)[nH]c2C)C(=O)c2cc(C(F)(F)F)cnc21 [Parent Compound 4A]', 'solubility at 1 h', 87);
